Experiment: Components of the Cytosolic LPS Sensing Pathway: Gene Identification via Genome-wide siRNA Screen;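 note: robust z of the log signal after scaling to non-targeting control siRNA wells of the plate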
Conditions: RAW264.7 macrophages, IL-1a HTRF, actives lie on both sides, screened at 100 nM (by protocol), cells primed 5 h with Pam3CSK4 first
Out of some 53,000 sequences screened, about 3,700 (7%) were called active. The entries come from a sample that favours actives as a whole.
Items are presented alongside their recorded z-score.
MEASURED_PROPERTY: z-score

item_sequence="GGUGGAUUAAGUCUCAAAATT against Pcdhb22" measured_property=z-score assay_result="0.592 (inactive)"
item_sequence="CCAAGCUUAUUGACAAUGATT against Spta1" measured_property=z-score assay_result="0.213 (inactive)"
item_sequence="GGAUUCAUAAAAGAAGCAATT against Zfp90" measured_property=z-score assay_result="0.8 (inactive)"
item_sequence="GCUUUCGGUGGAUUCCUUATT against Rars2" measured_property=z-score assay_result="-0.714 (inactive)"
item_sequence="GGAAAUUGGGACUCACAUCTT against Trappc13" measured_property=z-score assay_result="-0.0912 (inactive)"
item_sequence="CCUUUGAUUCACAAUGGUUTT against Smad4" measured_property=z-score assay_result="-0.0886 (inactive)"
item_sequence="CGGCGGUUUAAUGAAAAUATT against Cbfa2t2" measured_property=z-score assay_result="-2.58 (active)"
item_sequence="CCACCUACGUCAACACUAATT against Kcnh6" measured_property=z-score assay_result="-1.8 (inactive)"
item_sequence="GGACAGAAUACGUGAGGAGTT against Septin5" measured_property=z-score assay_result="-0.427 (inactive)"
item_sequence="GGAAAGAUGUCAAAGAAAUTT against Gnat2" measured_property=z-score assay_result="-1.14 (inactive)"
item_sequence="GCAGCGGAGGGUCAAAGAATT against Pym1" measured_property=z-score assay_result="0.783 (inactive)"
item_sequence="CCCUGUCUUUCCUAGGCCATT against Mcat" measured_property=z-score assay_result="-3.3 (active)"

* * *

Assay: Components of the Cytosolic LPS Sensing Pathway: Gene Identification via Genome-wide siRNA Screen;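 note: robust z of the log signal after scaling to non-targeting control siRNA wells of the plate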
Settings: RAW264.7 macrophages, IL-1a HTRF, actives lie on both sides, screened at 100 nM (by protocol), cells primed 5 h with Pam3CSK4 first
Screen size: about 53,000 sequences; about 3,700 (7%) were called active. The full list was thinned out, with actives kept by preference.
Quick rule: z-score of at least 0.2 means Y, below that means N.

item_sequence="GGAAGAAGCAGGUGAUUAATT against Grb14" discrete_label=N
item_sequence="GGGUAUGACCGGUAUUACATT against Atp5j2" discrete_label=Y
item_sequence="CCGAAAAUGGUUAGGACAUTT against Kynu" discrete_label=Y
item_sequence="GGAAGCAGAAUUGUAAAGATT against Hrk" discrete_label=N
item_sequence="GGAAUGCAGCCAUCCUAUCTT against Mia" discrete_label=N
item_sequence="GGAGUACGACUACUACGGUTT against Sfrp5" discrete_label=Y

* * *

Assay: Components of the Cytosolic LPS Sensing Pathway: Gene Identification via Genome-wide siRNA Screen;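 note: robust z of the log signal after scaling to non-targeting control siRNA wells of the plate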
Conditions: RAW264.7 macrophages, IL-1a HTRF, actives lie on both sides, screened at 100 nM (by protocol), cells primed 5 h with Pam3CSK4 first
The whole screen tested about 53,000 sequences, of which about 3,700 (7%) were called active. The sample as a whole holds a higher share of actives than the screen did.
MEASURED_PROPERTY: z-score

item_sequence="GCCUCUUUAUAAUAUAAGGTT against Pcgf6" assay_result=-0.687
item_sequence="GCACCUGAGCUUUCGAAUATT against Fam3a" assay_result=-0.373
item_sequence="CCCUAGUUACCAAUUCCACTT against Olfr293" assay_result=2.61
item_sequence="GCUUACAUUAAAGGAUAUGTT against Rab5c" assay_result=2.17
item_sequence="GGUGGCACUCUUUCAGAUCTT against Dennd1a" assay_result=2.08
item_sequence="CCACAGACAGUUAUUACUGTT against Adgre1" assay_result=-1
item_sequence="GGAAACUACAAAUUUGGCATT against Krtap6-2" assay_result=0.195
item_sequence="CCUAAAUCCUUUUGAACCCTT against Anapc16" assay_result=0.295
item_sequence="UUCGCUCUUGGUCCCUUCATT against Olfr1322" assay_result=1.06
item_sequence="GGUAGACACCUUGUUCUUATT against Nap1l3" assay_result=1.03
item_sequence="CCAUUUCCCAUUUCUGAAGTT against 1700001P01Rik" assay_result=-2.22
item_sequence="GCAAGAUUGGAAUGCUCCATT against 3830403N18Rik" assay_result=0.309
item_sequence="GCAUAAACUUUAGGCAUGGTT against Alg13" assay_result=-0.123
item_sequence="GGAACAUUCUAGAAUCUGUTT against Rps6kb2" assay_result=0.986
item_sequence="GCAACCAUUCUGGUAUUACTT against Zfp108" assay_result=0.904
item_sequence="GCAGACCAGACAGUAUUACTT against Zeb1" assay_result=1.22
item_sequence="GGUAUGAGAUUACCUUCACTT against 1700037H04Rik" assay_result=-1.16
item_sequence="GGGACAAGUGACUGAAUUGTT against Dio3" assay_result=0.408
item_sequence="GCGAGAGUGAAAACAUCCATT against Fam78b" assay_result=0.331
item_sequence="GGAUGAGAAUAUUGAAAGATT against 4932415M13Rik" assay_result=-0.225
item_sequence="CCACACUUCCCUUAUUUAATT against Arpc5" assay_result=1.35
item_sequence="GGAACUAGAAGAAAUGUUATT against Mrps9" assay_result=0.768
item_sequence="GGCCAAUAAAGAAACAAACTT against Cst9" assay_result=1.08
item_sequence="GGCGAAAAGACCAGUUAUGTT against Man2c1" assay_result=2.31
item_sequence="GCUGGAAUACGGAAAAUGGTT against Gbe1" assay_result=-1.56

* * *

Experiment: Components of the Cytosolic LPS Sensing Pathway: Gene Identification via Genome-wide siRNA Screen;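 note: robust z of the log signal after scaling to non-targeting control siRNA wells of the plate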
Details: RAW264.7 macrophages, IL-1a HTRF, actives lie on both sides, screened at 100 nM (by protocol), cells primed 5 h with Pam3CSK4 first
About 3,700 (7%) of roughly 53,000 sequences were called active. Shown is part of a subset that was picked to be rich in actives.
MEASURED_PROPERTY: z-score

item_sequence="GCCUGUGGUAGGAUACUAUTT against Denr" assay_result=-0.964
item_sequence="GGCAGAGAAAAGGACCUUUTT against Mcts2" assay_result=-1.32
item_sequence="GGAACUUUUCAUCCUGAAGTT against Fgl1" assay_result=0.0919
item_sequence="GCACAAUGACGCACUUACCTT against Pik3r2" assay_result=0.693
item_sequence="CCUAAUUGAAAUCAGCAGUTT against Hip1r" assay_result=1.14
item_sequence="GGGUCUCCAAUCCCUCAGUTT against Kir3dl2" assay_result=0.489
item_sequence="GGAAAAUGGAGAACUAAAGTT against Uxs1" assay_result=1.88
item_sequence="AGUUCCAGGCGCAGAAACCTT against D8Ertd738e" assay_result=1.46
item_sequence="GGCAUCCUGAGAGAACUCATT against Insyn1" assay_result=-2.27
item_sequence="GGUUCUGAUAGCUCAAGAGTT against Polr2b" assay_result=-1.96
item_sequence="GGAUUUAUGGCAAGUUUCUTT against Ppp2r5e" assay_result=0.00387
item_sequence="GGAUAGCUUGAUCAAUCUUTT against Cisd2" assay_result=-0.13
item_sequence="GCCUCUACUGGUUAUUUAATT against Slc22a15" assay_result=2.09
item_sequence="GGACAUCUGGUUAUGAAUGTT against B3galt6" assay_result=-0.111
item_sequence="UCUACAGGACUAUUAGAUUTT against Wnt6" assay_result=0.563
item_sequence="GGACAGUAUAGUGGAGAUCTT against Fgf22" assay_result=1.66
item_sequence="GGUAUUCUUGGAAGGAGGGTT against Prss22" assay_result=0.153
item_sequence="GGAAGUAAAGAGGAUCUCATT against Vat1l" assay_result=-0.678
item_sequence="CGACUGUCGUUUGUUGAUGTT against Tktl2" assay_result=-0.766
item_sequence="GGGCAGGAACAAAAGAAGCTT against Dsc1" assay_result=0.165
item_sequence="GGAUCUUAGCAUGUCAACATT against Zfp330" assay_result=-1.29
item_sequence="GGAGCUUCGGGAGAUGAUUTT against Fdxr" assay_result=0.357
item_sequence="GCAUAGCAGAGAUGAUUCUTT against Trip12" assay_result=2.15
item_sequence="GGAAUUCCUUACCUUCUUATT against Cyp2c65" assay_result=-0.269
item_sequence="GGAAUAUCAGAAUACCAUCTT against Cnpy4" assay_result=0.89
item_sequence="GCUGCCGUUUAAAUAUAUGTT against D10Wsu102e" assay_result=0.31
item_sequence="GGUAUCUUGAGAAGCCAAUTT against Stat3" assay_result=-0.536
item_sequence="GGGACCUCCAUCGUAUUUGTT against Slc29a4" assay_result=0.71
item_sequence="GGCCAUGGAAGCUGUUGCUTT against Pgam2" assay_result=-0.264
item_sequence="GCCUUACUGGGUUACUUGUTT against Cdkn2d" assay_result=3.22
item_sequence="GGCUGUCCGUACCUAUAAATT against Cpb1" assay_result=-1.26
item_sequence="CCUAAGGCAAUCCCUAUUGTT against Gprasp1" assay_result=-0.424
item_sequence="GGUCUUCUCCAAGAUCUUCTT against Cyp26b1" assay_result=1.03
item_sequence="GGUUCCAUAGCAGACAAAATT against Mrpl24" assay_result=0.513
item_sequence="GCCAUACAUAAACUACAAUTT against Gulo" assay_result=-0.175
item_sequence="UGCCCAAGACUCAGAAGUCTT against Igf1" assay_result=0.0658
item_sequence="GGGAAUAGCAAACUUAUCUTT against Nfil3" assay_result=-0.688
item_sequence="GGUGGAAGCACAGAGUUGCTT against Prdm15" assay_result=2.14
item_sequence="CCCUGAAACAAUGAAUACATT against Serpini1" assay_result=0.325
item_sequence="GCCAACUCGAACAUUUUGATT against Zfp280b" assay_result=0.567
item_sequence="GGCCUGAAGGGAAAGAUUUTT against Rbbp4" assay_result=-0.721
item_sequence="GCGGAUUAACCUCUGUGGCTT against Igfl3" assay_result=0.244
item_sequence="GGGAUAGCAAGACUUUCACTT against C5ar1" assay_result=0.194
item_sequence="GCCCUCUUGUGAUUAAGCATT against Esr1" assay_result=-0.959
item_sequence="GGGAAGAAAUAUGUUAGAUTT against Pip4p2" assay_result=0.92
item_sequence="GGUUUUGUUAUGGUAAGUCTT against Vdr" assay_result=-0.573
item_sequence="GCAUCACUGGAAAUCUUACTT against Olfr807" assay_result=-2.31
item_sequence="GCGUGAACGUAUUUGUUACTT against Pcdhgc3" assay_result=0.203
item_sequence="GCCGUCUCUGUGUCACAAATT against Sirt1" assay_result=-2.19
item_sequence="GGGAUUGAGAUCCUCAUACTT against Olfr1179" assay_result=0.125
